- Test Method Notes: Cytotoxicity (MTT / CellTiter-Glo cell viability) in Calu-3 cells
- Type: cell-based, human
- Experimental Setup: human, Calu-3 cells, at MNCC, 48 h exposure, normalized to untreated control; mean 2x
Where a name gives a salt, the structure may show the parent alone.
Measurement Kind: viability at 48 h (%)

1. C=C[C@H]1C[N@@]2CC[C@H]1C[C@H]2[C@H](O)c1ccnc2ccc(OC)cc12 [Quinine Sulfate (QN), Quinine Sulfate] | 90
2. CCO[C@H]1O[C@@H]2O[C@@]3(C)CC[C@H]4[C@H](C)CC[C@@H]([C@H]1C)[C@@]24OO3 | 97
3. CCCCN(CCCC)CC(O)c1cc(Cl)cc2c1-c1ccc(Cl)cc1/C2=C/c1ccc(Cl)cc1 (stereo not drawn) | 86
4. CN(C)c1ccc2nc3ccc(=[N+](C)C)cc-3sc2c1 | 89
5. C[C@H]1[C@H](N2CCS(=O)(=O)CC2)O[C@@H]2O[C@@]3(C)CC[C@H]4[C@H](C)CC[C@@H]1[C@@]24OO3 | 93
